- Tested on: HOP-92
- MEASUREMENT NOTES: NCI tumour cell line growth inhibition, 48 h
Activity calls are given as the source filed them. Rule as the data show it: active = GI50 up to about 1.1 µM and inactive = higher.
Outcome codes: active, inactive

> print(dat)
                                    compound  label.value
 1  Cc1ccnc(NS(=O)(=O)c2ccc(N=[N+]=[N-])cc2)n1     inactive
 2                      O=C(O)c1cccc(OCCO)c1     inactive
 3  Nc1ncnc2c1nnn2C1OC(CO)C(O)C1O (centres undefined)     inactive
 4  CCCCNC(=S)Nc1nc(C(=O)NNC(=S)Nc2ccccc2)cs1     inactive
 5  CC(CC(C)(C)[N+](C)(C)C)[N+](C)(C)C (centres undefined)     inactive
 6                 O=S(=O)(O)CS(=O)(=O)OCCCl     inactive
 7  CCCCCc1cc(OC(=O)c2c(O)cc(OC)cc2CCCCC)cc(O)c1C(=O)O     inactive
 8  CC(=O)Nc1nnc(S(=O)(=O)NC(=S)Nc2ccc(Cl)cc2)s1     inactive
 9              CCC(=O)c1cn(C)c(=O)c2ccccc12     inactive
10  CCCCCCC(CCl)c1sc(-c2csc(CCNC(=O)OC(C)(C)C)n2)nc1C(=O)OC (centres undefined)     inactive
11                 Cn1c2ccccc2c(=S)c2ccccc21     inactive
12         S=C=Nc1ccc(CSc2nc3ccccc3[nH]2)cc1     inactive
13  CC(C)(O)CCc1ccc(O)c2c(=O)c3c(O)c4c(cc3oc12)O[C@H]1OC=C[C@@]41O       active
14      NS(=O)(=O)c1ccc(NC(=O)Nc2ccccc2F)cc1     inactive
15  O=C1c2ccccc2-c2c1c1ccccc1c(=O)n2Cc1ccco1     inactive
16  CN(C)c1cccc(-c2cc(=S)c3cc4c(cc3[nH]2)OCO4)c1     inactive
17         CCCCCCCCCCC(=O)CC(=O)c1c(O)cccc1O     inactive
18            Nc1nc(Cl)c(Cl)c(NCC2(O)CCC2)n1     inactive
19  CCC(CO)Nc1nc2c(c(=O)n(C)c(=O)n2C)n1CCO (centres undefined)     inactive
20  CCc1nc(N)nc(N)c1-c1ccc(Cc2ccccc2)c([N+](=O)[O-])c1     inactive
21  c1ccc(Nc2nn3c(CCCCCCCCc4nnc5sc(Nc6ccccc6)nn45)nnc3s2)cc1     inactive
22  CCOP(=O)(OCC)C(=C1C=C(C(C)(C)C)C(=O)C(C(C)(C)C)=C1)P(=O)(OCC)OCC     inactive
23  COc1ccc(CNc2nc(NCc3ccc(OC)cc3)nc(NC3CCCCC3)n2)cc1     inactive
24     CC(=O)C1COC(O)C1C (centres undefined)     inactive

* * *

Recorded measurements of GI50, one per entry
- Tested on: A549
- MEASUREMENT NOTES: NCI tumour cell line growth inhibition, 48 h
Active and inactive are the calls of the source. Rule as the data show it: active = GI50 up to about 1.1 µM and inactive = higher.
ATTRIBUTE MEASURED: GI50

> print(dat)
                                    compound      endpoint.result
 1  Cc1cc(Cl)ccc1N1C(=O)C(=O)C(c2nc3ccccc3s2)/C(=N\NC(=O)c2ccccc2O)C1=O (stereo unspecified)  > 100 µM (inactive)
 2  O=C(/N=C1\SCCN1C(=O)C(C(F)(F)F)C(F)(F)F)C(C(F)(F)F)C(F)(F)F  > 100 µM (inactive)
 3  CCCOC(=O)C1CCC(=O)N1C(=O)C(Cl)Cl (stereo unspecified)  > 100 µM (inactive)
 4      NS(=O)(=O)c1ccc(NC(=O)Nc2ccccc2F)cc1  > 100 µM (inactive)
 5  O=C(CCN1CCCCC1CO)Nc1ccc2c(c1)C(=O)c1ccc(NC(=O)CCN3CCCCC3CO)cc1C2=O (stereo unspecified)   27.9 µM (inactive)
 6  Nc1ccc(C(=O)N/C(=C\C=C\c2ccco2)c2nc3c(O)nc(S)nc3[nH]2)cc1  > 100 µM (inactive)
 7  Cn1c(=O)oc2cc(C(O)CN3CCN(Cc4ccc5c(c4)OCO5)CC3)ccc21 (stereo unspecified)  > 100 µM (inactive)
 8                       COc1cc(C=O)cc(O)c1O  > 100 µM (inactive)
 9        COc1ccc2nc(-c3ccccc3)c(=O)[nH]c2c1  > 100 µM (inactive)
10  O=c1c2cc([N+](=O)[O-])ccc2n2n1Cc1ccccc1C2   79.3 µM (inactive)
11  Cc1ccnc(NS(=O)(=O)c2ccc(N=[N+]=[N-])cc2)n1  > 100 µM (inactive)

* * *

- Tested on: NCI-H460
- MEASUREMENT NOTES: NCI tumour cell line growth inhibition, 48 h
Activity calls are given as the source filed them. No stated cut-off is given here; in the data, active = GI50 up to about 1.1 µM and inactive = higher.
Recorded measurements of GI50, one per entry
ATTRIBUTE MEASURED: GI50

MOLECULE	STUDY SYSTEM	ATTRIBUTE MEASURED	ENDPOINT RESULT
Clc1ccccc1/C=c1\nc(-c2ccccc2)n2c1nc1ccccc12	NCI-H460	GI50	> 100 µM (inactive)
O=C1Cc2c(-c3ccccc3)cc(-c3ccc(Cl)cc3)nc2-c2ccccc2N1	NCI-H460	GI50	3.21 µM (inactive)
CCC(=O)n1c(=O)n(-c2ccc([N+](=O)[O-])cc2)c(=O)n1C(=O)CC	NCI-H460	GI50	> 100 µM (inactive)
C(/C=N/N=C1NCCCCN1)=N\N=C1NCCCCN1	NCI-H460	GI50	> 100 µM (inactive)
N#Cc1nc(CCCCCN2C(=O)c3ccccc3C2=O)oc1N	NCI-H460	GI50	> 100 µM (inactive)
CN(C)CC(C)(C)C(=O)/C=C/c1ccc(/C=C/C(=O)C(C)(C)CN(C)C)cc1	NCI-H460	GI50	3.78 µM (inactive)
COC1/C(=C\C(C)=O)c2ccccc2N1C(C)=O (stereo not given)	NCI-H460	GI50	> 100 µM (inactive)
COCOc1cc(OC)ccc1C/C=N/O	NCI-H460	GI50	> 100 µM (inactive)
c1ccc2c(c1)c(N1CCCCC1)cc1nc3c(cc(N4CCCCC4)c4ccccc43)nc12	NCI-H460	GI50	> 100 µM (inactive)
Cc1ccccc1/C=N/C12CC3CC(CC(C3)C1)C2	NCI-H460	GI50	> 100 µM (inactive)
CSC(=S)c1ccc(C(=S)SC)cc1	NCI-H460	GI50	> 100 µM (inactive)
COc1ccc2c(c1)[C@@]13CCN4CC5=CCO[C@H]6CC(=O)N2[C@H]1[C@H]6[C@H]5C[C@H]43	NCI-H460	GI50	> 100 µM (inactive)
Cc1cc(C)c(P2C(=C(O[Si](C(C)C)(C(C)C)C(C)C)C(C)(C)C)C2(c2ccccc2)c2ccccc2)c(C)c1 (stereo not given)	NCI-H460	GI50	> 100 µM (inactive)
Nc1nc(=O)[nH]cc1F [FLUCYTOSINE]	NCI-H460	GI50	> 100 µM (inactive)
CC(=O)Oc1ccc2[nH]c3c(C)c4cccc-4ccc3c2c1	NCI-H460	GI50	2.94 µM (inactive)
O=C1OC(C2=CC(=O)c3ccccc3C2=O)C(Cl)=C1Cl (stereo not given)	NCI-H460	GI50	56.8 µM (inactive)
CCCCCCCCCCCC(=O)Oc1c(Cl)cc(Cl)c(OC(=O)C(=O)Oc2c(Cl)cc(Cl)c(OC(=O)CCCCCCCCCCC)c2Cl)c1Cl	NCI-H460	GI50	> 100 µM (inactive)
CNc1ccc(C(=O)CC(O)CCC(C)C2OC(=O)CC(O)CC(=O)CC(O)CC(O)CC(O)CC(O)CC3(O)CC(O)C(C(=O)NCCN(C)C)C(CC(OC4OC(C)C(O)C(NC(=O)CN5CCN(C)CC5)C4O)\C=C/C=C\C=C/C=C/C=C/C=C\C=C/C2C)O3)cc1 (stereo not given)	NCI-H460	GI50	4.73 µM (inactive)
CC(=O)[C@@]1(O)CC[C@H]2[C@@H]3C[C@H](C)C4=CC(=O)C=C[C@]4(C)[C@@]3(F)[C@@H](O)C[C@@]21C [FLUOROMETHOLONE]	NCI-H460	GI50	> 100 µM (inactive)
Cc1cc(C)nc(NS(=O)(=O)c2ccc(NNc3c4ccccc4nc4c(C(=O)Nc5ccc(S(N)(=O)=O)cc5)cccc34)cc2)n1	NCI-H460	GI50	37.6 µM (inactive)

* * *

- System: U-251
- MEASUREMENT NOTES: NCI tumour cell line growth inhibition, 48 h
The source made the active and inactive calls. Cut-off read from the data, not from the text of the source: active = GI50 up to about 1.1 µM and inactive = higher.
Outcome codes: active, inactive

MOLECULE	LABEL VALUE
CCN(CC)CCCNc1c2cc(OC)ccc2nc2cccc([N+](=O)[O-])c12	active
c1c[nH]c(CN2CCOCC2)n1	inactive
CO[C@H]1[C@@H](O)[C@@H](O)O[C@@H](O[C@H]2CC[C@@]3(C)[C@H](CC[C@@H]4[C@@H]3[C@H](O)C[C@]3(C)[C@@H](C5=CC(=O)OC5)CC[C@]43O)C2)[C@@H]1O	active
N#C/C(C(=O)NCc1ccccc1)=C(/N)N1CCCC1	inactive
O=c1c(SSc2coc3cc(F)ccc3c2=O)coc2cc(F)ccc12	inactive
CC(C)C(=O)OCC1CCCN2CCCCC12 (stereo not given)	inactive
O=C1CS(=O)(=O)C(c2cccc(Oc3ccccc3)c2)N1C1CC1 (stereo not given)	inactive
C1CNCCNCCNCCN1	inactive
CCN(CC)CCCC(C)Nc1ccnc2cc(Cl)ccc12 (stereo not given) [CHLOROQUINE PHOSPHATE]	inactive
O=c1oc2cccnc2n1CCN1CCN(c2ccc(Oc3ccccc3)cc2)CC1	inactive
